Reference source: ChEMBL document CHEMBL1155271

Tested on: Staphylococcus aureus
assay.procedure: Antimicrobial activity against Methicillin susceptible Staphylococcus aureus 212/7 by twofold dilution technique
Format: functional
value.kind: MIC (µg/mL)
Report the figure in µg/mL without appending any unit label.

Worked examples, 4 molecules total:
[[record]]
molecule = "COCCOCCOCCN/N=C/c1c(O)c(O)c(C(C)C)c2cc(C)c(-c3c(C)cc4c(C(C)C)c(O)c(O)c(/C=N/NCCOCCOCCOC)c4c3O)c(O)c12"
value_kind = "MIC"
result_number = 400

[[record]]
molecule = "O=C(O)c1cn(C2CC2)c2cc(N3CCNCC3)c(F)cc2c1=O"
value_kind = "MIC"
result_number = 0.5

[[record]]
molecule = "COCCN/N=C/c1c(O)c(O)c(C(C)C)c2cc(C)c(-c3c(C)cc4c(C(C)C)c(O)c(O)c(/C=N/NCCOC)c4c3O)c(O)c12"
value_kind = "MIC"
result_number = 100

[[record]]
molecule = "Cc1cc2c(c(O)c1-c1c(C)cc3c(c1O)/C(=C/NCCC(=O)N[C@@H](Cc1c[nH]cn1)C(=O)O)C(=O)C(O)=C3C(C)C)/C(=C/NCCC(=O)N[C@@H](Cc1c[nH]cn1)C(=O)O)C(=O)C(O)=C2C(C)C"
value_kind = "MIC"
result_number = 100


Problem: Lookup: MIC / Staphylococcus aureus / COc1ccc2[nH]cc(CCN/C=C3\C(=O)C(O)=C(C(C)C)c4cc(C)c(-c5c(C)cc6c(c5O)/C(=C/NCCc5c[nH]c7ccc(OC)cc57)C(=O)C(O)=C6C(C)C)c(O)c43)c2c1
Solution: 100

Problem: Lookup: MIC / Staphylococcus aureus / CCCCOCCOCCN/C=C1\C(=O)C(O)=C(C(C)C)c2cc(C)c(-c3c(C)cc4c(c3O)/C(=C/NCCOCCOCCCC)C(=O)C(O)=C4C(C)C)c(O)c21
Solution: 200
